# Test system: SF-539 CNS
# protocol: NCI-60 one-dose screen, 48 h (100 = growth as untreated, 0 = no growth, -100 = all killed)
# condition: 10 µM unless noted
The panel holds about 83,000 compounds, 20% with a hit somewhere; the sample as a whole holds those more often.

- molecule: "Nc1nc2ccccc2c2c1S(=O)(=O)c1ccc(Cl)cc1C2=O"
  growth, %: 11.2
- molecule: "Cc1nc2sc(C(=O)Nc3cccc(Br)c3)c(N)c2cc1C(O)c1ccccc1 (stereo not given)"
  growth, %: 6.22
- molecule: "N#CC1=C(N)Oc2c(sc3c(Br)cccc23)C1c1ccc(Cl)cc1 (stereo not given)"
  growth, %: -38.2
- molecule: "CSc1nnc(-c2cc3c([nH]c4ccccc43)c(-c3cccc(O)c3)n2)n1-c1ccccc1"
  growth, %: -7.08
- molecule: "O=C1/C(=C/c2cccc(F)c2)CN(C(=O)C(Cl)Cl)C/C1=C\\c1cccc(F)c1"
  growth, %: -98.6
- molecule: "COc1ccc(C(=O)Nc2cccc(-c3cc(=O)c4c(OC)c(OC)c(OC)cc4o3)c2)cc1"
  growth, %: 66.3
- molecule: "COC(=O)c1c(C)c2n(c1C)C(=O)C(c1ccccc1)=C2"
  growth, %: 87.6
- molecule: "C=CC[Se]C(=O)Cc1c(C)n(C(=O)c2ccc(Cl)cc2)c2ccc(OC)cc12"
  growth, %: -89.5
- molecule: "O=C(Nc1ccc(OS(=O)(=O)c2ccc(F)cc2)cc1)C1CCCCCC1"
  growth, %: 89.7
- molecule: "Clc1cccc(Nc2ncnc3ccc(-c4cnc5[nH]ccc5c4)cc23)c1"
  growth, %: 84
- molecule: "O=S(=O)(Nc1ccc(Cl)c(C(F)(F)F)c1)c1ccc(-c2cnc(C3CC3)o2)cc1"
  growth, %: -35.8
- molecule: "O=C(NCCNc1nccc(Nc2ccc(S(=O)(=O)Nc3ccccn3)cc2)n1)c1cccc([N+](=O)[O-])c1"
  growth, %: 102
- molecule: "Nc1ncnc2c1C(c1ccccc1)c1ccc3ccccc3c1O2 (stereo not given)"
  growth, %: 90.7
- molecule: "O=C1Nc2ccccc2/C1=C/c1nc2ccccc2c(=O)[nH]1"
  growth, %: 93.6
- molecule: "CN1CCN(C(=O)c2ccc(NC(=O)c3cc4c(nn3)NCCN4Cc3cc(Cl)ccc3Cl)cc2)CC1"
  growth, %: 52.3
- molecule: "Cc1cc(C(=O)Nc2ncc(Cc3cccc(C(F)(F)F)c3)s2)c2ccccc2n1"
  growth, %: 21.9
- molecule: "O=C1Nc2ccc(C(=O)O)cc2/C1=N/c1nnc(Sc2ccccc2)s1"
  growth, %: 96.8
- molecule: "CCOc1nc(-c2ccccc2)cc2c(O)c(C(=O)N/N=C/c3ccccc3)[nH]c(=O)c12"
  growth, %: 112
- molecule: "COc1ccc(C2=C(Nc3ccc(C(=O)Nc4ccccc4)cc3)C(=O)N(C)C2=O)cc1"
  growth, %: 97.6
- molecule: "C=C1C(=O)O[C@H]2[C@H]1CC/C(COC(=O)NCc1ccc(Cn3c(=O)sn(CCCCC)c3=O)cc1)=C\\CC[C@@]1(C)O[C@@H]21"
  growth, %: 46.5

---

# System: CCRF-CEM leukemia
# protocol: NCI-60 one-dose screen, 48 h (100 = growth as untreated, 0 = no growth, -100 = all killed)
# condition: 10 µM unless noted
About 83,000 compounds went through this panel and 20% of them were active in at least one assay; those are over-represented in the sample as a whole.
measured-parameter: growth (%)

- chem-smiles: "COc1ccc(C(=O)N2c3ccccc3Sc3ccccc32)c(OC)c1"
  measured-parameter: "growth"
  measure-unit: "%"
  val: 16.5
- chem-smiles: "C#CCOC(=O)/C=C/c1cn(-c2ccccc2)nc1-c1ccc(OC)cc1"
  measured-parameter: "growth"
  measure-unit: "%"
  val: 97.5
- chem-smiles: "CCOC(=O)C#Cc1c(C(=O)OCC)nnn1Cc1ccc([N+](=O)[O-])cc1"
  measured-parameter: "growth"
  measure-unit: "%"
  val: -21.3
- chem-smiles: "Cc1cn(-c2cc(NC(=O)c3cncc(C#Cc4cnc(N)c5ncccc45)c3)cc(C(F)(F)F)c2)cn1"
  measured-parameter: "growth"
  measure-unit: "%"
  val: 32.5
- chem-smiles: "c1cc2c(ccc3[nH]c(-c4ccc5[nH]ncc5c4)c4c(c32)CCCC4)n1"
  measured-parameter: "growth"
  measure-unit: "%"
  val: 13.6
